Molecular target: pooled human IgG (human IgG1,2,3 and 4)
# Lookup of reported Enzyme Activity Endpoint Assay (purified): scIgG keyed by entry
Give just the number in ng/µL; leave the unit off.

>  <PROTEIN>
PRT-510 (protein) MITSVWTKGVTPPTDFRKIVDGNIAYYHAPYKAGQGWYDITKAFDGGDDLLCGAATAGNMLHWWFDQNKEEIEAYLKKHPEKQKIMFGDQELLDVRKVINTKDSQTNSALFNYFKDKAFPNLSARRLGVMPDLVLDMFINGYYLNVYKTQTTDVNRTYQTKDRRGGIFDAVFTRGDQSKLLTERHDLKNKTLKEISDLIKQELTEGKALGLSHTYANVRINHVINLWGADFDSNGNLEAIYVTDSDSNASIGMKKYFVGVNSAGKVAISAKEIKEDNIGAQVLGLFTLSTGQDIWNQTNLEHHHHHH

>  <RESULT>
0

$$$$
>  <PROTEIN>
PRT-302 (protein) MVTSVWTKGVTPPTDFIKGEDVFHAPYKAGQGWYDITKTFNGKDDLLCGAATAGNMLHWWFDQNKEYIEAYLKKHPEKQKIMFGDQELLDVRKAINTKGSQKNSELFNYFRDKAFPNLSARRLGVMPDLVLDMFINGYYLNVTKTQTTDVNRTYQEKDKRGGIFDAVFTRGDQSKLLTSRHDFKEKGLKEISDLIKQELTEGKALGLSHTYANVRLNHVINLWGADFDSDGNLKAIYVTDSDSNASIGMKKYGVGVNSAGKVAISAKEIKEDNIGAQVLGLFTLSTGQDIWNQTN

>  <RESULT>
0

$$$$
>  <PROTEIN>
PRT-371 (protein) MSQTEDSESLQRLRDIEDFQAEKKKQNVVYTKWLDGVDVKDHDFRKIVDGNSAYYATPLLNGRGFYDINKDFNRDNDKCAAAVAANMFHYWLDRNRDNVDRFLRQNPEKHGIIELPDGQLKLSDFLNTYESDDGYRDKSKLFDFISENFNGPVWTDKLLDNYINGYAYNYKYGRTIEDSTKNTSKINFFKEVFNEKILTNNHSIRNQNEFSVLLIEALYTGKAIGLSYGPAGLRHSLGHIISVWGADLDADGNVVAIYVTDSDDKKLTIGDERVGLKRYKISTDDEGRLRLTAYEETHNTGGQIRGLWTLDTGKQAWADYFDKTEQTGTDQAEQ

>  <RESULT>
295

$$$$

Proceeding to the next protein to report its Enzyme Activity Endpoint Assay (purified): scIgG.
Problem: Look at this protein and give its reported Enzyme Activity Endpoint Assay (purified): scIgG. PRT-356 (protein) MSQTEDSESLQRLRDIEDFQAEKEKQNVVYTKWLDGVDVKDHDFRKIVDGNSAYYATPLLNGRGFYDINKDFNRDSDKCAAAVAANMFHYWLDRNRDNVDRFLRQNPEKHGIIELPDGQLKLSDFLNTYESDDGYRDKSKLFDFISNNFNGPVWTDKLLDNYINGYAYNYKYGRTIEDPTKNTSKINFFKEVFNEKILTNNHSIRNQNEFSVLLSEALYTGKAIGLSYGPAGLRHSLGHIISVWGADLDADGNVVAIYVTDSDDKKLTIGDERVGLKRYKISTDDEGRLRLTAYEETHNTGGQVRGLWTLDTGKQAWADYFDKTEQTGTDQAEQ
Result: 289
